experiment: NCI Yeast Anticancer Drug Screen. Data for the rad50 strain (AID 155); settings: S. cerevisiae rad50 strain growth inhibition; at 50.0 µM (retest, dose inferred, filed as 5.0)
This is part of a sample that, as a whole, favours compounds with a hit. Of some 79,000 tested, about 15% had one in any assay. Activity calls are given as the source filed them. No stated cut-off is given here; in the data, active means growth inhibition above about 70%; inactive means the rest.
Valid outcomes are listed here; reply with one: active, inactive

MOLECULE	ASSIGNED_CATEGORY
COc1cccc2c1S(=O)(=O)C(c1ccccc1)=CC2=O	active
COc1cccc2c1C(=O)c1c(O)c3c(c(O)c1C2=O)C[C@@](O)(/C(C)=N/NC(=O)c1ccc(Cl)c(Cl)c1)C[C@@H]3OC1CC(N)C(O)C(C)O1 (stereo partly specified)	active
CCCCCCCCCCCCCCCc1nc(SCC(=O)O)n[nH]1	inactive
CCCCC(CC)CCC(C)OC(=O)C(O)c1ccccc1 (stereo unspecified)	active
OC1CN(C2CCCCC2)CC1C1(O)CCN(C2CCCCC2)C1 (stereo unspecified)	inactive

Q: What outcome does the record of this test show for C=CCNC(=O)c1ccccc1C(=O)O ?
Ans: inactive
